Target: T1, human IL-17A (construct not specified) (human, UniProt Q16552 24-155, limits assumed)
T1 construct: also called huIL-17A
T1 sequence: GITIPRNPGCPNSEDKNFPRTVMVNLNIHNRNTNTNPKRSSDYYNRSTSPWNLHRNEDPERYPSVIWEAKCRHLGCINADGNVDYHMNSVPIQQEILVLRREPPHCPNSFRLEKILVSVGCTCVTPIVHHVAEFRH
Assay: ELISA, coated huIL-17A, then 200 nM XAB1 Fab as competitor
MEASUREMENT NAME: Competition ELISA (normalized to XAB1 Fab) (fold)

INSERT INTO results (binder, readout_value) VALUES
  ('MB461 (Fab, V domains shown, Fab variant of XAB1) VH: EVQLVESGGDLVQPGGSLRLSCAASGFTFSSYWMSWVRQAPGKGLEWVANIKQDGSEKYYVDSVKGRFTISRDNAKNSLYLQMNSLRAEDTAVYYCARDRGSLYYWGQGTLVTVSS VL: AIQLTQSPSSLSASVGDRVTITCRPSQGIYWTLAWYQQKPGKAPKLLIYDASSLENGVPSRFSGSGSGTDFTLTISSLQPEDFATYYCQQFNSYPLTFGGGTKVEIK', 62.8),
  ('MB435 (Fab, V domains shown) VH: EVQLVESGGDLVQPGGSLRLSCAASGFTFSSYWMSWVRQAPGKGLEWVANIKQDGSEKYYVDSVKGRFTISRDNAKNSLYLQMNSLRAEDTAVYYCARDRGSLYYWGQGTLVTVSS VL: AIQLTQSPSSLSASVGDRVTITCRPSQGINWELAWYQQKPGKAPKLLIYDASSLENGVPSRFSGSGSGTDFTLTISSLQPEDFATYYCQQFNSYPLTFGGGTKVEIK', 44.6);
